# System: K4 kissing-loop RNA reporter
# methodNotes: apparent KD of K4 kissing-loop reporter; higher = weaker reporter binding
# conditionDescription: Eterna round: R107; input ligand: arginine 13.2 mM
Each item that follows carries a reported apparent KD of K4 kissing-loop reporter.
Respond numerically; units are nM and should not be typed.

Below, each entry is followed by its recorded apparent KD of K4 kissing-loop reporter result.
sequenceText	unitOfMeasurement	apparent KD of K4 kissing-loop reporter
UAACUUGCAGUGAUGUUGCAAGAACUGGAUACCAGCAUGGAAACAUGCCCUUGGCAGCCAGAAGGUAUCCUCUUGCAUAGAUACU [Design3]	nM	178
CGCGGCCCGCCGGAUACCAGUGACCCGCGGGAAACCGCGGGCCCAGAGUGAUGUUCGGGACACCCUUGGCAGCCGCCUGGGCGUG [#2 Same State - Theophylline B Attempt #1 (HarryS)]	nM	325
UCCUGCAAUCUGCCACGAAAGUGGGUUGAUACCAGAGUCGAAAGACUCCCUUGGCAGCGAGUGAUGUUCGUUGCAGGUGUUUAAA [MatMod 11 - Jieux - Exclusion - Theophylline A]	nM	172

I'd like to know its apparent KD of K4 kissing-loop reporter. The sequence in question is CUAUUUCGCGUGGAUACCAGCGGUCGUAAAAUGUCAGUGAUGUUGAAGAGGAAAAGAGCUCGCCCUUGGCAGCCAUUCCGCACUA [theeternabot_sameState_KL_Theo_B_34]
363

Fill in the blank: the reported apparent KD of K4 kissing-loop reporter of AAGUUUUAUAAACUCAUGGUUUCGUCAGAUACCAGCCUCGAGAGAGGCCCUUGGCAGCUGCAUGAGUGAUGUUCAUGUUCGAAGA [KL_XTheoA8] is ____.
260

====

# Test system: MS2 coat protein
# methodNotes: apparent KD of MS2 coat protein, switch ON state; designed switch direction (-1 OFF switch, 1 ON switch): 1; higher = weaker reporter binding
# conditionDescription: FMN input: 0 or 200 uM; Eterna round: R93 (includes R88 designs)
recordedMetric: apparent KD of MS2 coat protein
Put your answer as a value accompanied by its unit after it.

sequenceText	reported
AGAAAACAUGAGGAUCACCCAUGUAGAAAUAUGGGAGGAUAUACAAAGACGAAAGUCAAAGUAGAAGGCCUGAAGA [Mat - Same State 1 - JL mod - D92]	20.4 nM
GAAAAACAUGAGGAUCACCCAUGUAGAAACAUGGGAGGAUAUACAAAGACGAAAGUCAAAGUAGAAGGCCUAAAAG [Mat - Same State 1 - Mod - D159]	207 nM

Lookup: apparent KD of MS2 coat protein / MS2 coat protein / AUGUAUAGCCUCGAGGAUAUCCUGUCAUGCACAUGAGGAUCACCCAUGUAAGAGAGAGUUUAAUGGGAGAAGGCGAGUUCUCGGU [JR_SS002_Sub1706]
33.4 nM

Form field - read-out: apparent KD of MS2 coat protein; system: MS2 coat protein; submitted item: AUAAUAAAAACACAGGAUAUCCAAAAGAAAACAUGAGGAUCACCCAUGUAAAGAAAAUAAAAAUGGGAGAAGGGUGAAAUAAAUA [Mat - Same State 2 - JL mod - D34]
37.4 nM

====

# Test system: K4 kissing-loop RNA reporter;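 further: bound reporter read as fluorescence of individual clusters on recovered sequencing chips by microscopy, with normalized cluster intensities fitted with a binding model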
# methodNotes: apparent KD of K4 kissing-loop reporter; higher = weaker reporter binding
# conditionDescription: Eterna round: R107; input ligand: tryptophan 2.4 mM
# thresholds on apparent KD of K4 kissing-loop reporter define classes: low group (below 200 nM), middle group (200 nM to below 300 nM), high group (300 nM or more)

Observe how each entry below is paired with its result.
sequenceText	groupLabel
CAUACGCAUGGAGGAUAUGAGAUUACUCGUAUCAUUUAAUAUUCUCAGUGAUGUUGAGAUUUGGGCUCAGAAGGCCAUGUGUAUG [Ex FMN B 16]	middle group
UCAGUGAUGUUGAACAAAUAAUGGUUCCUAAAGGAUAUCCACAGAUGGAGAAGGUUAGUAGCGGCUCGCACAUCGUAGGACAAAU [theeternabot_exclusion_KL_FMN_A_1]	high group
AAGGCACGGCUUCGGCCGUGCCAAAUAGAUACCAGCAUAAUAAUAUGCCCUUGGCAGCUAAAUAUAAAUUCAGUGAUGUUGGAUA [SS Theo A Tesla 2.2]	high group
UACAUCGAGCAGAGUGAUGUUUUGUGCGAUACCAGCAAGUGCAAGUGCCCUUGGCAGCGCAAGCGGUUGUAUGUAGGACCGGACG [theeternabot_exclusion_KL_Theo_A_21]	high group
UGAUACCAGACGGCCGCCACUAGGGCUAGCAAAGCUAGCAAGUGAUGUUUGAGGAGUGAUGUUCCUAGGACCGGGUCUGGUAUCU [TrypBX 1 #Palindromic #SwitchBubble #StaticStem]	low group
UGGAGUUGACGAAAAGUCAACUCCUGAGAUACCAGUGACGAAAGUCACCCUUGGCAGCUCACUGGCAGUGAUGUUGCUAAAUAAA [KL-SSTheo-A2]	low group
UGACUGGAUUGAAGGAGCGCUAAACUCCUAGUGAUGUUAGGGACACGAGACAAAGUCUCGAGGCAGGUAGGUCGCAAUCUAGUCU [FiskerMod 6 - Jieux - Same State - Arginine B]	middle group
AGCUUGGGUUCGGCCGCCACUCCACCCUUAGAAGUGAUGUUUCUCAUGCAUACGCGUCGUCAGAUGAGGACCGGGAAUGUAGUUG [theeternabot_exclusion_KL_Trp_B_24]	middle group
GUGAGGAUCAGAAGGAGCGUCGGCAAUCCAGUGAUGUUGGGUGUUGGUUAUAUUUAACGACGACAGGUAGGUCGCUGAUUUUCAA [Same State Arginie B GF 21]	low group
AACAACUUGUUUGUCGGGUGUUCGCGCGAUACCAGCCGAAUGGAUGGCCCUUGGCAGCGCAGCGAGUGAUGUUCGCCCGCUUGAC [Exclusion Theophylline A GF 24]	high group

GET /class?item= AGACUACUGACAGGAUAUAACAUCCUAGUCGUAUACCGAAAGGUAUACGAUUCCCUUCUAGUGAUGUUAGAAGGGUCGGUAGUCA [Omei KL FMN B Exc B v13]
low group

Please report the category associated with GGACCUCAGUGAUGUUGAGGUAACACUGAUACCAGCGACUUAAUUCGCCCUUGGCAGCAGUCCACCGAGGUAUCUGAUUAGGUCU [#23 K4 Theophylline A Exclusion] , nothing else.
low group

Please report the category associated with GUGCGGCUAGUGAUGUUGGUUGCGUGGGAAGGAGCGCAGAAACAUGCAGGUAGGUCGCCCACAUCUCUGAUAAAAGAUUAAUUCA [Riares] , nothing else.
middle group

Sourced from the supplement of paper PMC9170038
